# method summary: SK-BR-3 cell growth inhibitors, pilot screen, 24 h, human (AID 572);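 also: compound exposure lasted between 18 and 24 h rather than exactly 24 h; 100% = carrier-treated control wells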
# test settings: SK-BR-3 viability, CellTiter-Glo luminescence, at 10 µM, active compounds read low
Calls of active or inactive are those of the source.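 The calls were made as follows: active = viability at or below 10% of carrier control in both of two separate runs; inconclusive = viability at or below 10% in only one of the two runs; inactive = the rest.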
Would you mind telling me the reported viability of each entry?

Problem: Look at this compound and give its reported viability. `Cc1cccn2c(=O)c3cc(C#N)c(=NC(=O)c4ccncc4)n(Cc4ccco4)c3nc12`
Result: 110% (inactive)

Problem: Look at this compound and give its reported viability. O=C1C2C3C=CC(C3=C3CCCCC3)C2C(=O)N1c1ccccc1 (stereo unspecified)
Result: 131% (inactive)

Problem: Look at this compound and give its reported viability. `C[C@]12C=CC(=O)C=C1CC[C@@H]1[C@@H]2[C@@H](O)C[C@@]2(C)[C@H]1CC[C@]2(O)C(=O)COC(=O)CCC(=O)O`
Result: 112% (inactive)

Problem: Look at this compound and give its reported viability. `COc1ccc(NC(=O)Nc2ccccc2C)c(OC)c1`
Result: 93% (inactive)

Problem: Look at this compound and give its reported viability. CC(C)(C)NCC(O)c1cc(O)cc(O)c1 (stereo unspecified)
Result: 127% (inactive)

Problem: Look at this compound and give its reported viability. `Nc1nnc(SCCOc2ccccc2)s1`
Result: 86.5% (inactive)

Problem: Look at this compound and give its reported viability. `O=c1[nH]c(N2CCCCC2)nc2c1CCCC2`
Result: 95% (inactive)

Problem: Look at this compound and give its reported viability. Cn1c2c(c(=O)n(C)c1=O)C(NC(=O)C(C)(C)C)(C(F)(F)F)C(=O)N2 (stereo unspecified)
Result: 105% (inactive)

Problem: Look at this compound and give its reported viability. `COc1ccc(-c2noc(CN3C(=O)c4ccccc4C3=O)n2)cc1`
Result: 102% (inactive)

Problem: Look at this compound and give its reported viability. `Cc1nnc(SCC(=O)NCc2ccc3c(c2)OCO3)s1`
Result: 87% (inactive)

Problem: Look at this compound and give its reported viability. O=C(CN1C(=O)c2ccccc2C1=O)Nc1ccc(S(=O)(=O)NCC2CCCO2)cc1 (stereo unspecified)
Result: 89% (inactive)
